The values you see were collected from paper PMC6269467.

Biological target: filamentous actin (F-actin) from rabbit skeletal muscle (rabbit, UniProt P68135 1-377)
Experiment: BLI; F-actin immobilised on Streptavidin (SA) biosensors through LAbio peptide; αcat-ABD in solution at various concentrations; 26 °C, Octet384; 2 mM Tris-HCl pH 8.0, 0.2 mM ATP, 0.5 mM DTT, 0.1 mM CaCl2, 50 mM KCl, 2 mM MgCl2, 0.1% BSA, 0.02% Tween-20; 2:1 heterogeneous ligand model
Details: both partners purified
measure-name: kon2 (2:1 heterogeneous ligand model) (M⁻¹ s⁻¹)
Give just the number in M⁻¹ s⁻¹; leave the unit off.

In: Output measured kon2 (2:1 heterogeneous ligand model) for this item: αEcat-ABD V796A (domain or fragment, source: E. coli BL21-CodonPlus, purified (glutathione-sepharose, thrombin cleavage, Superdex 75); not shown: GST, N-terminal, cleaved) SRTSVQTEDDQLIAGQSARAIMAQLPQEQKAKIAEQVASFQEEKSKLDAEVSKWDDSGNDIIVLAKQMCMIMMEMTDFTRGKGPLKNTSDVISAAKKIAEAGSRMDKLGRTIADHCPDSACKQDLLAYLQRIALYCHQLNICSKAKAEVQNLGGELVVSGVDSAMSLIQAAKNLMNAVVQTVKASYVASTKYQKSQGMASLNLPAVSWKMKAPEKKPLVKREKQDETQTKIKRASQKKHVNPVQALSEFKAMDSI
Out: 6910

In: Output measured kon2 (2:1 heterogeneous ligand model) for this item: αEcat-ABD L785A (domain or fragment, source: E. coli BL21-CodonPlus, purified (glutathione-sepharose, thrombin cleavage, Superdex 75); not shown: GST, N-terminal, cleaved) SRTSVQTEDDQLIAGQSARAIMAQLPQEQKAKIAEQVASFQEEKSKLDAEVSKWDDSGNDIIVLAKQMCMIMMEMTDFTRGKGPLKNTSDVISAAKKIAEAGSRMDKLGRTIADHCPDSACKQDLLAYLQRIAAYCHQLNICSKVKAEVQNLGGELVVSGVDSAMSLIQAAKNLMNAVVQTVKASYVASTKYQKSQGMASLNLPAVSWKMKAPEKKPLVKREKQDETQTKIKRASQKKHVNPVQALSEFKAMDSI
Out: 2210

In: Output measured kon2 (2:1 heterogeneous ligand model) for this item: αEcat-ABD I792A (domain or fragment, source: E. coli BL21-CodonPlus, purified (glutathione-sepharose, thrombin cleavage, Superdex 75); not shown: GST, N-terminal, cleaved) SRTSVQTEDDQLIAGQSARAIMAQLPQEQKAKIAEQVASFQEEKSKLDAEVSKWDDSGNDIIVLAKQMCMIMMEMTDFTRGKGPLKNTSDVISAAKKIAEAGSRMDKLGRTIADHCPDSACKQDLLAYLQRIALYCHQLNACSKVKAEVQNLGGELVVSGVDSAMSLIQAAKNLMNAVVQTVKASYVASTKYQKSQGMASLNLPAVSWKMKAPEKKPLVKREKQDETQTKIKRASQKKHVNPVQALSEFKAMDSI
Out: 14500
